System: Botulinum neurotoxin type F light chain protease (Clostridium botulinum)
Assay: Botulinum neurotoxin type F light chain protease inhibition, multiplex microsphere flow cytometry, validation set (AID 588459)
Details: multiplex microsphere protease substrate cleavage assay, at 10 µM, hits give high values
Assay readout: inhibition (%)
The answer is to be given in %; state only the numeric part.

Compound	Unit abbrev	inhibition
O=C1C2CC=C(Cl)CC2C(=O)N1CCc1c[nH]c2ccccc12 (configuration not stated)	%	0.7
O=C(CSCc1ccccc1)NCCCN1CCOCC1	%	-2.9
CCn1cc(CN2N=C(C)CC2c2ccccc2)c(C)n1 (configuration not stated)	%	-0.5

Incoming: Which inhibition value is on record for O=C(CCCN1C(=O)/C(=C\c2cccc(Br)c2)SC1=S)Nc1cccnc1 ?
Outgoing: -1.7

Incoming: Now try Cc1ccc(CSCC(=O)N2CCCC2)cc1 .
Outgoing: 2.8

Incoming: Now try CC[C@H]1OC(=O)[C@H](C)[C@@H](O[C@H]2C[C@@](C)(OC)[C@@H](O)[C@H](C)O2)[C@H](C)[C@@H](O[C@@H]2O[C@H](C)C[C@H](N(C)C)[C@H]2O)[C@](C)(O)C[C@@H](C)[C@@H]2N[C@@H](COCCOC)O[C@H]([C@H]2C)[C@]1(C)O .
Outgoing: 3.3

Incoming: Now try Cc1ccc(-n2cc(CNCCN3CCOC3=O)c(-c3ccc(F)cc3)n2)cc1 .
Outgoing: -3.2

Incoming: Now try CN1CCC(OC(c2ccccc2)c2ccccc2)CC1 .
Outgoing: -0.8
